# STUDY SYSTEM: UniProt P00533
# Sequence (P00533 whole entry): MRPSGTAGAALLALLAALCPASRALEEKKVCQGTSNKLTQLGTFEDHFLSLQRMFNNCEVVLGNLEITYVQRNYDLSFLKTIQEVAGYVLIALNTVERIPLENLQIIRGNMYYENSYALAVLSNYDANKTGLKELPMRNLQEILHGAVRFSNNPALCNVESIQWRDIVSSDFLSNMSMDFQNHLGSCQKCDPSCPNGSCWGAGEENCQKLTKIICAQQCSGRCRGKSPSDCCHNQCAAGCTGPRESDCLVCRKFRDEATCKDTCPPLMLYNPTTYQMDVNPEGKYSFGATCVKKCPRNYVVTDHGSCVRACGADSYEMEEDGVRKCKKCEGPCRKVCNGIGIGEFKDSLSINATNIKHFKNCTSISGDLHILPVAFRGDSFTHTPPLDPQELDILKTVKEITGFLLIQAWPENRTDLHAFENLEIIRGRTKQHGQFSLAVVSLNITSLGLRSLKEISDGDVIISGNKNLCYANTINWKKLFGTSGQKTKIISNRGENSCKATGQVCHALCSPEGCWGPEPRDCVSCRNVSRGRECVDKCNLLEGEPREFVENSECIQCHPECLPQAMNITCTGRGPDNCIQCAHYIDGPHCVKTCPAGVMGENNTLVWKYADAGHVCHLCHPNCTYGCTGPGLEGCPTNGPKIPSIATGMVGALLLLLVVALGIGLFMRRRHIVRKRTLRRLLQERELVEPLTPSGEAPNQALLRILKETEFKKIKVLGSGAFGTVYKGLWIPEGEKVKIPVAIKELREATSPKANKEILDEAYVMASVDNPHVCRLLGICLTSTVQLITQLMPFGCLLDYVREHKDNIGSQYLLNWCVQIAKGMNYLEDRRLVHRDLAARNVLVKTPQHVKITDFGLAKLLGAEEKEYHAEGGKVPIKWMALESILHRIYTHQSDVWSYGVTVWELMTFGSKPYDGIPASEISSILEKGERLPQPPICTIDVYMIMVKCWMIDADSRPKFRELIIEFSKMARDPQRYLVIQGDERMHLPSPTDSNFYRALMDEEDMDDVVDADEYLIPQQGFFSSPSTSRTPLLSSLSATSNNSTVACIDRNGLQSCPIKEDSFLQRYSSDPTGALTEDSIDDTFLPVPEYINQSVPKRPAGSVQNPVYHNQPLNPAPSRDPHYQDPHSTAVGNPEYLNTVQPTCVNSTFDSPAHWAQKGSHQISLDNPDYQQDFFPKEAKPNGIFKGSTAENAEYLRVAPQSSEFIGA
MEASUREMENT KIND: pIC50
One number for each entry, as −log10 of the molar value.

Looking up CNC(=S)N(C)[C@H]1C[C@@H]2O[C@](C)([C@H]1OC)n1c3ccccc3c3c4c(c5c6ccccc6n2c5c31)C(=O)NC4 , I see its pIC50 listed as 4.90

----------
For each of the compounds below, state its log10 of IC50.
# STUDY SYSTEM: cAMP-dependent protein kinase (PKA) (Homo sapiens, UniProt P22694+P17612+P22612)
Values are log10 of IC50 in nM.

Some solved cases for reference:
# INPUT SMILES, OBSERVED VALUE
measured = [
    ("CO[C@H]1[C@@H](N(C)S(C)(=O)=O)C[C@@H]2O[C@@]1(C)n1c3ccccc3c3c4c(c5c6ccccc6n2c5c31)C(=O)NC4", 3.00),
    ("CO[C@H]1[C@@H](N(C)c2ccccc2)C[C@@H]2O[C@@]1(C)n1c3ccccc3c3c4c(c5c6ccccc6n2c5c31)C(=O)NC4", 1.74),
    ("CO[C@H]1[C@@H](N(C)CC(=O)O)C[C@@H]2O[C@@]1(C)n1c3ccccc3c3c4c(c5c6ccccc6n2c5c31)C(=O)NC4", 2.15),
]

Need log10 of IC50 for each of these compounds.
1. CCN(C)[C@H]1C[C@@H]2O[C@](C)([C@H]1OC)n1c3ccccc3c3c4c(c5c6ccccc6n2c5c31)C(=O)NC4
2. CN[C@H]1C[C@@H]2O[C@](C)([C@H]1OC)n1c3ccccc3c3c4c(c5c6ccccc6n2c5c31)[C@H](O)NC4=O

3.20
3.35
